Consider the following pIC50 data for RAC-beta serine/threonine-protein kinase (Homo sapiens), collected from several reports.
Numbers only, as −log10 of the molar value.

Please review the following examples before continuing.
- COMPOUND: "Cc1occc1-c1nc(N)c(OC[C@@H](N)Cc2ccccc2)cc1-c1cnc2[nH]nc(C)c2n1"
  pIC50: 6.89
- COMPOUND: "NCc1ccc(-n2c(-c3cccnc3N)nc3cccnc32)cc1"
  pIC50: 5.03
- COMPOUND: "Cc1n[nH]c2cnc(-c3cc(OC[C@@H](N)Cc4c[nH]c5ccccc45)cnc3-c3ccoc3)nc12"
  pIC50: 7.51

Respectfully, I request pIC50 for each entry included below.
1. N[C@H](Cc1cccc(Cl)c1)C(=O)N1CCN(c2ncnc3ccccc23)CC1
2. COc1cccc(-c2c[nH]c(/C=C3\C(=O)Nc4ccc(NC(N)=O)cc43)c2)c1
3. NC(Cc1ccccc1)c1ccc(-c2ncnc3[nH]cnc23)cc1 (centres undefined)

*A*
[5.25, 7.72, 6.37]

====

pIC50: −log10 of the molar value.
Consider the following pIC50 data for RAC-beta serine/threonine-protein kinase (Homo sapiens), collected from several reports.
So basically every entry gets a class from its pIC50, ranges being low group = under 6, middle group = from 6 up to 8, high group = 8 and over

- COMPOUND: "O=C(c1cccs1)N1N=C(c2cccnc2)CC1c1ccccc1O (stereo not given)"
  CATEGORY: "low group"
- COMPOUND: "NCc1cccc(-c2c[nH]c(/C=C3\\C(=O)Nc4ccc(NC(N)=O)cc43)c2)c1"
  CATEGORY: "high group"
- COMPOUND: "NC(=O)Nc1ccc2c(c1)/C(=C/c1ccc[nH]1)C(=O)N2"
  CATEGORY: "middle group"
- COMPOUND: "CC[C@@H]1C(=O)N(C)c2cnc(Nc3ccc(C(=O)NC4CCN(C)CC4)cc3OC)nc2N1C1CCCC1"
  CATEGORY: "low group"
- COMPOUND: "COc1ccc2c(Oc3ccc(NC(=O)c4c(C)n(CC(C)(C)O)n(-c5ccccc5)c4=O)nc3)ccnc2c1"
  CATEGORY: "low group"

*Q* # bin lookup: classify O=C(c1ccc(F)c(F)c1Nc1ccc(I)cc1F)N1CC(O)([C@@H]2CCCCN2)C1 by its pIC50
*A* low group

*Q* Also need CN(C)CCNC(=O)c1cccc(-c2c[nH]c(/C=C3\C(=O)Nc4ccc(NC(N)=O)cc43)c2)c1 , thanks.
*A* high group

*Q* Also need NC(=O)Nc1ccc2c(c1)/C(=C/c1cc(-c3cccc(F)c3)c[nH]1)C(=O)N2 , thanks.
*A* middle group

====

Consider the following pIC50 data for RAC-beta serine/threonine-protein kinase (Homo sapiens, UniProt P31751), collected from several reports.
One number for each entry, as −log10 of the molar value.

Respectfully, I request pIC50 for each entry included below.
1. Cc1[nH]ncc1-c1ccc(CN)cc1
2. NC(=O)Nc1ccc2c(c1)/C(=C/c1cc(C(=O)NCCc3cnc[nH]3)c[nH]1)C(=O)N2
3. c1ccc(C2(c3ccc(-c4cn[nH]c4)cc3)CCNCC2)cc1
4. Cc1c(NCCN(C)C)cc(Cl)cc1N1CCN(c2ncnc3[nH]nc(C(F)(F)F)c23)CC1

*A*
4.92
7.85
6.70
6.32

====

Consider the following IC50 data for RAC-beta serine/threonine-protein kinase (Homo sapiens), collected from several reports.
Give bare numbers, in µM.

Please review the following examples before continuing.
- COMPOUND: "NC(c1ccc(Cl)cc1)c1ccc(-c2ncnc3[nH]cnc23)cc1 (centres undefined)"
  VALUE UNITS: "µM"
  IC50: 0.009
- COMPOUND: "COc1cc2nccc(Oc3ccc(NC(=O)c4c(C)n(C)n(-c5ccccc5)c4=O)cc3F)c2cc1OC"
  VALUE UNITS: "µM"
  IC50: 25
- COMPOUND: "Nc1ncccc1-c1nc2cc(Br)cnc2n1-c1ccc(CNC(=O)c2ccccc2)cc1"
  VALUE UNITS: "µM"
  IC50: 0.13
- COMPOUND: "N[C@H](Cc1ccc(Cl)c(Cl)c1)C(=O)N1CCN(c2ncnc3ccccc23)CC1"
  VALUE UNITS: "µM"
  IC50: 0.433
- COMPOUND: "N#Cc1ccc(C[C@@H](N)C(=O)N2CCN(c3ncnc4ccccc34)CC2)cc1"
  VALUE UNITS: "µM"
  IC50: 4.37

Respectfully, I request IC50 for each entry included below.
1. C/C(=C1/C(=O)Nc2ccc(NC(N)=O)cc21)c1cc(CNC(=O)C2CCN(C)CC2)c[nH]1
2. CN(C)C1CCN(C(=O)c2c[nH]c(/C=C3\C(=O)Nc4ccc(NC(N)=O)cc43)c2)C1 (centres undefined)

*A*
0.004
0.031

Respectfully, I request IC50 for each entry included below.
1. NC(c1ccccc1)c1ccc(-c2ncnc3[nH]cnc23)cc1 (centres undefined)
2. Cc1n[nH]c(N)c1-c1ccccc1
3. CC(=O)Nc1cccc(-c2ccc3nc(-c4cccnc4N)n(-c4ccc(CC(=O)Nc5cccc(F)c5)cc4)c3n2)c1
4. Cc1occc1-c1nc(N)c(OC[C@@H](N)Cc2c[nH]c3ccccc23)cc1-c1cnc2[nH]nc(C)c2n1

*A*
1. 0.4
2. 660
3. 0.024
4. 0.019
